Data credit: ChEMBL document CHEMBL3734673

Molecular target: Lysosomal acid glucosylceramidase (Homo sapiens)
Sequence (P04062 whole entry): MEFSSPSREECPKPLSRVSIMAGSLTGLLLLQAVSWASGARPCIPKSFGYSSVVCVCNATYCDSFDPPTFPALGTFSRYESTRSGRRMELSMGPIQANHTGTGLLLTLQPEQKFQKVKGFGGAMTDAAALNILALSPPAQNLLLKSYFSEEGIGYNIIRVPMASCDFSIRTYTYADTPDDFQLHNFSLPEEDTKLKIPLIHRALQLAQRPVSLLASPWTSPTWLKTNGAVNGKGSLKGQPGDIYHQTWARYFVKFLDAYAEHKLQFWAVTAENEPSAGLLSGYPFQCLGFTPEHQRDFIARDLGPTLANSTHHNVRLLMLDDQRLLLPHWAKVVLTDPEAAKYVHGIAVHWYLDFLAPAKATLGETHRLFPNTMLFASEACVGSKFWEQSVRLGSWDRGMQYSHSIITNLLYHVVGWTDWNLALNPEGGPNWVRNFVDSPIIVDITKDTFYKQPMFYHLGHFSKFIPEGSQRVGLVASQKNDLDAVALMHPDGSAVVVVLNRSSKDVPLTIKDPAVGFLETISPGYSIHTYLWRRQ
Assay: Inhibition of human beta-glucosidase isolated from human fibroblasts incubated for 30 mins using […] analysis
pIC50: −log10 of the molar value.
measurement name: pIC50

-- ask Request the reported pIC50 associated with "CCC(CC)N[C@@H]1C=C[C@H](O)[C@H](O)[C@H]1O.Cl"
-- reply < 3.00

-- ask Thanks! And "Cl.OCCCN[C@@H]1C=C[C@H](O)[C@H](O)[C@H]1O" ?
-- reply < 3.00

-- ask Thanks! And "Cl.O[C@@H]1[C@@H](O)[C@H](NCc2ccccc2)C=C[C@@H]1O" ?
-- reply < 3.00

-- ask Thanks! And "Cl.O[C@@H]1[C@@H](O)[C@H](NCCc2ccccc2)C=C[C@@H]1O" ?
-- reply < 3.00

-- ask Thanks! And "Cl.O[C@@H]1[C@@H](O)[C@H](NC2CCCCC2)C=C[C@@H]1O" ?
-- reply < 3.00

-- ask Thanks! And "CCCCCCCCN[C@@H]1C=C(CO)[C@H](O)[C@H](O)[C@H]1O.Cl" ?
-- reply < 3.00

-- ask Thanks! And "CCCCCCCCN[C@@H]1C=C(C)[C@H](O)[C@H](O)[C@H]1O" ?
-- reply < 3.00

-- ask Thanks! And "CC(C)CCN[C@@H]1C=C[C@H](O)[C@H](O)[C@H]1O.Cl" ?
-- reply < 3.00

-- ask Thanks! And "CCCCCCN[C@@H]1C=C[C@H](O)[C@H](O)[C@H]1O.Cl" ?
-- reply < 3.00

-- ask Thanks! And "CCCCCCCCCCN[C@@H]1C=C[C@H](O)[C@H](O)[C@H]1O.Cl" ?
-- reply < 3.00
